Measured IC50 (PIK3CA (human) (UniProt P42336))
Answers are plain numbers, in nM.

State the recorded IC50 for every item in the following list.
1. CC(C)(C#N)c1ccc(-n2c(=O)[nH]c3cnc4ccc(-c5cnc6ccccc6c5)nc4c32)cc1
2. Cn1c(=O)n([C@H]2CC[C@H](O)CC2)c2c3nc(-c4cnn(CCO)c4)ccc3ncc21
3. Cc1ccc(-c2ccc3ncc4c(c3n2)n(C2CCN(C(=O)CN)CC2)c(=O)n4C)cn1

stdout:
1. 6.47
2. 448
3. 68.9

State the recorded IC50 for every item in the following list.
1. C[C@H](CO)n1c(=O)n(C)c2cnc3ccc(-c4cnc(N)nc4)nc3c21
2. Cn1c(=O)n([C@H]2CC[C@H](O)CC2)c2c3nc(-c4cn[nH]c4)ccc3ncc21
3. CN(C)CC(=O)N1CCC(n2c(=O)n(C)c3cnc4ccc(-c5ccc(N(C)C)nc5)nc4c32)CC1

stdout:
331
19.7
15.3

State the recorded IC50 for every item in the following list.
1. COc1cccc(-c2ccc3ncc4c(c3n2)n(C2CCN(C(C)=O)CC2)c(=O)n4C)c1
2. Cn1c(=O)n(C2CCNCC2)c2c3nc(-c4cnc(N)nc4)ccc3ncc21

stdout:
1: 57.7; 2: 137

State the recorded IC50 for every item in the following list.
1. Cn1c(=O)n(C2CCN(C(=O)CO)CC2)c2c3nc(-c4cccc5[nH]ncc45)ccc3ncc21
2. COc1ccc(-c2ccc3ncc4c(c3n2)n([C@H](C)CO)c(=O)n4C)cn1
3. COc1ccc(-c2ccc3ncc4c(c3n2)n(C2CCN(C(C)C)CC2)c(=O)n4C)cn1
4. Cn1c(=O)n([C@H]2CC[C@H](N)CC2)c2c3nc(-c4cnc5ccccc5c4)ccc3ncc21
5. Cc1ccc(-c2ccc3ncc4c(c3n2)n(C2CCN(C(=O)CN(C)C)CC2)c(=O)n4C)cn1

stdout:
1. 60.4
2. 237
3. 55.1
4. 46.4
5. 42.7

State the recorded IC50 for every item in the following list.
1. Cn1c(=O)n([C@H]2CC[C@H](O)CC2)c2c3nc(-c4ccc5[nH]ncc5c4)ccc3ncc21
2. CNC(=O)N1CCC(n2c(=O)n(C)c3cnc4ccc(-c5cnc(OC)nc5)nc4c32)CC1
3. CN[C@H]1CC[C@H](n2c(=O)n(C)c3cnc4ccc(-c5cnc6ccccc6c5)nc4c32)CC1
4. Cc1ccc(-c2ccc3ncc4c(c3n2)n(-c2ccc(C(C)(C)C#N)cc2)c(=O)n4C)cn1
5. CN(C)c1ccc(-c2ccc3ncc4c(c3n2)n(C2CCN(C(=O)C(C)(C)C)CC2)c(=O)n4C)cn1

stdout:
20.5
68.1
404
24.4
21.4

---

Measured IC50 (PIK3CA (human))
Give bare numbers, in nM.

C[C@H](O)C(=O)N1CCC(n2c(=O)n(C)c3cnc4ccc(-c5ccnc6[nH]ncc56)nc4c32)CC1	218
Cn1cc(-c2ccc3ncc4c(c3n2)n(-c2ccc(C(C)(C)C#N)cc2)c(=O)n4C)cn1	116
COCC(=O)N1CCC(n2c(=O)n(C)c3cnc4ccc(-c5cnc(OC)nc5)nc4c32)CC1	12.3
Cn1c(=O)n(C2CCN(CC(F)(F)F)CC2)c2c3nc(-c4cnc5ccccc5c4)ccc3ncc21	14.8
COc1ccc(-c2ccc3ncc4c(c3n2)n(C2CCN(C(=O)CN(C)C)CC2)c(=O)n4C)cn1	14.4

State the recorded IC50 for every item in the following list.
1. CN(C)c1ccc(-c2ccc3ncc4c(c3n2)n(C2CCN(C(=O)C(C)(C)O)CC2)c(=O)n4C)cn1
2. CN(C)C(=O)CN1CCC(n2c(=O)n(C)c3cnc4ccc(-c5cnn(C)c5)nc4c32)CC1
3. COc1ncc(-c2ccc3ncc4c(c3n2)n(C2CCN(C(C)=O)CC2)c(=O)n4C)cn1
4. C[C@@H](CO)n1c(=O)n(C)c2cnc3ccc(-c4cnn(C)c4)nc3c21

stdout:
6.69
248
34.6
5040

---

Measured pIC50 (PIK3CA (human) (UniProt P42336))
Numbers only, as −log10 of the molar value.

Recorded results for 4 molecules are shown here.
Cc1ccc(-c2ccc3ncc4c(c3n2)n(C2CCN(C)CC2)c(=O)n4C)cn1	7.64
COc1ncc(-c2ccc3ncc4c(c3n2)n(C2CCN(CC(=O)N(C)C)CC2)c(=O)n4C)cn1	7.43
CNC(=O)Nc1ccc(-c2ccc3ncc4c(c3n2)n(C2CCN(C(=O)[C@H](C)O)CC2)c(=O)n4C)cc1	7.09
Cn1c(=O)n(C2CCOCC2)c2c3nc(-c4cnn(CCO)c4)ccc3ncc21	6.24

State the recorded pIC50 for every item in the following list.
1. COc1ncc(-c2ccc3ncc4c(c3n2)n(C2CCN(C(=O)CO)CC2)c(=O)n4C)cn1
2. COc1ncc(-c2ccc3ncc4c(c3n2)n(-c2ccc(C(C)(C)C#N)cc2)c(=O)n4C)cc1F
3. CNC(=O)N1CCC(n2c(=O)n(C)c3cnc4ccc(-c5ccc(C)nc5)nc4c32)CC1
4. COc1cccc(-c2ccc3ncc4c(c3n2)n(C2CCN(C(=O)[C@H](C)O)CC2)c(=O)n4C)c1
5. O=c1[nH]c2cnc3ccc(-c4cnc5ccccc5c4)nc3c2n1C1CCNCC1
6. CNC(=O)N1CCC(n2c(=O)n(C)c3cnc4ccc(-c5ccc(OC)nc5)nc4c32)CC1

stdout:
[7.57, 7.04, 7.23, 7.46, 6.45, 8.04]

State the recorded pIC50 for every item in the following list.
1. CNC(=O)N1CCC(n2c(=O)n(C)c3cnc4ccc(-c5cnc6ccccc6c5)nc4c32)CC1
2. C[C@@H](O)C(=O)N1CCC(n2c(=O)n(C)c3cnc4ccc(-c5ccc(N(C)C)nc5)nc4c32)CC1

stdout:
8.13
8.26

---

# study_target: PIK3CA (human) (UniProt P42336)
# Sequence (P42336 whole entry, looked up): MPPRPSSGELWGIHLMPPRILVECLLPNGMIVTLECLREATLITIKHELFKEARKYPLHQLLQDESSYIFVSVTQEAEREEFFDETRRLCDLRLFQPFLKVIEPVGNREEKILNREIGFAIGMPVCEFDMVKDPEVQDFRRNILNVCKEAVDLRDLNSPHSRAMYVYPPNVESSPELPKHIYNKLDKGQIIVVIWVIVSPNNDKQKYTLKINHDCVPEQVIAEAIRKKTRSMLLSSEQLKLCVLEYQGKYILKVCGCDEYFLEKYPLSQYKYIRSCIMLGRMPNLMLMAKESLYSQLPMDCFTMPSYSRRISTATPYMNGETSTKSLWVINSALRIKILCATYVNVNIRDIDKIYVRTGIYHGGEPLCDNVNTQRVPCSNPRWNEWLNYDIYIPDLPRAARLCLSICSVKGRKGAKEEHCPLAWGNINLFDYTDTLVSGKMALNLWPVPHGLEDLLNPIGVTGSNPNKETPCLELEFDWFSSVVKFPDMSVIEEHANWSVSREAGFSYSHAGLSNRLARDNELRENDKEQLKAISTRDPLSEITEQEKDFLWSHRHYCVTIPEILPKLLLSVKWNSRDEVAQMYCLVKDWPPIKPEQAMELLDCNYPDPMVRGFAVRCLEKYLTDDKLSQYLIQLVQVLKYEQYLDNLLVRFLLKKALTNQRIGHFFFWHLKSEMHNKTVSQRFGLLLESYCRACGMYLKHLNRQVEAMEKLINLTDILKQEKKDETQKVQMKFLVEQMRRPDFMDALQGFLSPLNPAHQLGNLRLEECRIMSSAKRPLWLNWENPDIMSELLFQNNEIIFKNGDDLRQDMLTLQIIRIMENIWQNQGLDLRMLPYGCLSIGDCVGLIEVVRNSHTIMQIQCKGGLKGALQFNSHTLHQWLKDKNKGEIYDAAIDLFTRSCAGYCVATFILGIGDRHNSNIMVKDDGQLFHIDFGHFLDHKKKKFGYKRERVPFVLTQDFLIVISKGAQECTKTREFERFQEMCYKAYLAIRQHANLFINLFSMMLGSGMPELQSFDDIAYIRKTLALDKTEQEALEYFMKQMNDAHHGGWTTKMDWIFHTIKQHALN
# assay_remarks: Cell-Based Assay
# conditions_used: bt20
Okay, here is how we bin by IC50: LOW (below 20 nM), MID (20 nM to below 90 nM), HIGH (90 nM or more)

// known answers, use as guide
Cc1ccc(-c2ccc3ncc4c(c3n2)n(C2CCN(CC(N)=O)CC2)c(=O)n4C)cn1	LOW
COc1ccc(-c2ccc3ncc4c(c3n2)n(C2CCOCC2)c(=O)n4C)cn1	LOW
Cn1c(=O)n([C@H]2CC[C@H](O)CC2)c2c3nc(-c4cnc5ccccc5c4)ccc3ncc21	LOW
COc1ncc(-c2ccc3ncc4c(c3n2)n([C@H]2CC[C@H](C(N)=O)CC2)c(=O)n4C)cn1	MID
N[C@H]1CC[C@H](n2c(=O)[nH]c3cnc4ccc(-c5cnc6ccccc6c5)nc4c32)CC1	HIGH

stdin: Please let me know in which category the item CCNC(=O)N1CCC(n2c(=O)n(C)c3cnc4ccc(-c5cnc6ccccc6c5)nc4c32)CC1 belongs.
stdout: LOW

stdin: Please let me know in which category the item COc1ccc(-c2ccc3ncc4c(c3n2)n(C2CCN(CC(N)=O)CC2)c(=O)n4C)cn1 belongs.
stdout: LOW

stdin: Please let me know in which category the item Cn1cc(-c2ccc3ncc4c(c3n2)n(C2CCOCC2)c(=O)n4C)cn1 belongs.
stdout: MID

stdin: Please let me know in which category the item CC(=O)N1CCC(n2c(=O)n(C)c3cnc4ccc(-c5ccc(S(C)(=O)=O)cc5)nc4c32)CC1 belongs.
stdout: HIGH

stdin: Please let me know in which category the item COc1ccc(-c2ccc3ncc4c(c3n2)n(C2CCN(C(C)=O)CC2)c(=O)n4C)cc1 belongs.
stdout: LOW

stdin: Please let me know in which category the item COc1ncc(-c2ccc3ncc4c(c3n2)n(C2CCN(C(=O)CN)CC2)c(=O)n4C)cn1 belongs.
stdout: HIGH

stdin: Please let me know in which category the item COc1ncc(-c2ccc3ncc4c(c3n2)n(C2CCNCC2)c(=O)n4C)cn1 belongs.
stdout: HIGH

---

Measured log10(IC50) (PIK3CA (human) (UniProt P42336))
Remember, log10 of IC50, in nM.

Recorded results for 4 compounds are shown here.
COc1ncc(-c2ccc3ncc4c(c3n2)n(C2CCN(CC(N)=O)CC2)c(=O)n4C)cn1	1.96
Cn1c(=O)n([C@H]2CC[C@H](O)CC2)c2c3nc(-c4cc[nH]n4)ccc3ncc21	2.42
CC(C)C(=O)N1CCC(n2c(=O)n(C)c3cnc4ccc(-c5cnc6ccccc6c5)nc4c32)CC1	1.47
CCC(=O)N1CCC(n2c(=O)n(C)c3cnc4ccc(-c5cnc6ccccc6c5)nc4c32)CC1	0.90

State the recorded log10(IC50) for every item in the following list.
1. Cc1ccc(-c2ccc3ncc4c(c3n2)n([C@H]2CC[C@H](O)CC2)c(=O)n4C)cn1
2. COCCn1c(=O)n(C)c2cnc3ccc(-c4ccc(OC)nc4)nc3c21
3. CCNC(=O)Nc1ccc(-c2ccc3ncc4c(c3n2)n(C2CCN(C(=O)OC(C)(C)C)CC2)c(=O)n4C)cc1

stdout:
[1.27, 2.32, 1.60]
